Molecular target: T1, huCD33-R69 stably expressed on Jurkat cells (human, UniProt P20138 18-364)
T1 construct: whole, on cells; >200,000 receptors per cell; also called CD33 WT; CD33^ARG69
T1 sequence (P20138 18-364): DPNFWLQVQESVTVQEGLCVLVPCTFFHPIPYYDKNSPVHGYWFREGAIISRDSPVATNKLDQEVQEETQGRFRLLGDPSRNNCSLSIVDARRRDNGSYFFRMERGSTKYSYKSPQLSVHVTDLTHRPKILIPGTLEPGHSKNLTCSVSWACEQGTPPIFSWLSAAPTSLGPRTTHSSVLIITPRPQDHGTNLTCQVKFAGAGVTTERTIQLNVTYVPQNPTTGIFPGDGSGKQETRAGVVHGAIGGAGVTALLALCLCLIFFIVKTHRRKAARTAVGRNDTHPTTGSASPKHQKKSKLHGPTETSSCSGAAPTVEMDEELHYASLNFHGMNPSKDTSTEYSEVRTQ
Assay: FACS on cells;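 further: fixed Jurkat lines probed with myc-tagged scFv periplasmic extracts, anti-myc PE flow cytometry, PE MFI fold binned − <2, + 2–10, ++ 10–30, +++ >30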
# maps each entry to its FACS geometric mean fold change over Jurkat parental

Worked set:
| BINDER | VAL |
| --- | --- |
| Polypeptide No. 100 (scFv, V domains shown, scFv) VH: QVQLVQSGAEVKKPGASVKVSCKASGATRSWMHWVRQAPGQGLEWMGIINPSGDSTSYAQKFQGRVTMTRDTSTSTVYMELSSLRSEDTAVYYCAKEPYSSSPYYFDYWGQGTLVTVSS VL: DIQMTQSPSSLSASVGDRVTITCRASQSISSWLAWYQQKPGKAPKLLIYGASSLQSGVPSRFSGSGSGTDFTLTISSLQPEDFATYYCQQSYTTPITFGQGTRLEIKR | 10 to 30 fold |
| Polypeptide No. 191 (scFv, V domains shown, scFv) VH: QVQLVQSGAEVKKPGASVKVSCKASGGTFSSYAISWVRQAPGQGLEWMGWMNPNSGNTGYAQKFQGRVTMTRDTSTSTVYMELSSLRSEDTAVYYCAREDYYDSSGNFDYWGQGTLVTVSS VL: DIQMTQSPSSLSASVGDRVTITCQASHDINIHLNWYQQKPGKAPKLLIYDASNLETGVPSRFSGSGSGTDFTLTISSLQPEDFATYYCQQAYSLPWTFGQGTKVEIKR | > 30 fold |

Recorded FACS geometric mean fold change over Jurkat parental (binder Polypeptide No. 92 (scFv, V domains shown, scFv) VH: QVQLVQSGAEVKKPGASVKVSCKASGYTFTNHYMHWVRQAPGQGLEWMGIINPSGGSTSYAQKFQGRVTMTRDTSTSTVYMELSSLRSEDTAVYYCASAEVGATHYGMDVWGQGTTVTVSS VL: DIVMTQSPLSLPVTPGEPASISCRSSQSLLHSNGYNYLDWYLQKPGQSPQLLIYAASSLQSGVPDRFSGSGSGTDFTLKISRVEAEDVGVYYCMQALHPPTFGQGTKVEIKR ): 2 to 10 fold

GET /value?item= Polypeptide No. 117 (scFv, V domains shown, scFv) VH: EVQLLESGGGLVQPGGSLRLSCAASGFTFGDYPMSWVRQAPGKGLEWVAGISYDGLNEHYADSVKGRFTISRDNSKNTLYLQMNSLRAEDTAVYYCARDRDSGPSGFQHWGQGTLVTVSS VL: DIQMTQSPSSLSASVGDRVTITCRASQTIGTWLAWYQQKPGKAPKLLIYDASSLESGVPSRFSGSGSGTDFTLTISSLQPEDFATYYCQQSYSTPPTFGQGTKVEIKR &field=FACS geometric mean fold change over Jurkat parental returns 2 to 10 fold

The binder identified as Polypeptide No. 121 (scFv, V domains shown, scFv) VH: QVQLVQSGAEVKKPGASVKVSCKASGDSFTDYYIHWVRQAPGQGLEWMGWMNPNSGNTGYAQQFQGRVTMTRDTSTSTVYMELSSLRSEDTAVYYCARDREYSSSSRYFDLWGRGTLVTVSS VL: DIQMTQSPSSLSASVGDRVTITCRASQNIGNWLAWYQQKPGKAPKLLIYAASTLQSGVPSRFSGSGSGTDFTLTISSLQPEDFATYYCQQSYNSITFGPGTKVDIKR registered its FACS geometric mean fold change over Jurkat parental at 10 to 30 fold
